B1: library; numbered along this chain (parent)
chain: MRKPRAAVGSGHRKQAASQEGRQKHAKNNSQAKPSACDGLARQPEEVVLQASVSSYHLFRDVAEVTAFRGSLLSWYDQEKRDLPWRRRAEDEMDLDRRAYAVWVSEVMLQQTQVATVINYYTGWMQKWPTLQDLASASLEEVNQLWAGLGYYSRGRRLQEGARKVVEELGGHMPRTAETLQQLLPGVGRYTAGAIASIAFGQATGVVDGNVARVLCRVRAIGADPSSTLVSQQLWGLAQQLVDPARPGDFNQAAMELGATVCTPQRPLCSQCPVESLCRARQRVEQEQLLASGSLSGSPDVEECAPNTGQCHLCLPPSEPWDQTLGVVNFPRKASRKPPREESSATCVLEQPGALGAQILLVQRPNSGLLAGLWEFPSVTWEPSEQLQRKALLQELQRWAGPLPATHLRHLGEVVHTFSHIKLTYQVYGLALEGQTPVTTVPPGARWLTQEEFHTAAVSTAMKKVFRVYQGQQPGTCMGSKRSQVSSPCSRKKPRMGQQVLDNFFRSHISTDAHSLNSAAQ

Variants of: B1
Assay: 8OG:A repair function score (normalized; synonymous = 0, nonsense = -1) (normalized log-likelihood score); higher = more repair activity (WT-like);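 note: cells sorted at 72 h after reporter transfection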
Settings: with 8OG:A DNA repair reporter (GFP) in HEK-293 MUTYH KO cells
Could you label it 1 if measured 8OG:A repair function score is -0.07 or higher, and 0 otherwise?

Would you say M173T shows 8OG:A repair function score at minimum -0.07?
0

Next:
Would you say G258P shows 8OG:A repair function score at minimum -0.07?
0

Would you say L169T shows 8OG:A repair function score at minimum -0.07?
0

Would you say G248H shows 8OG:A repair function score at minimum -0.07?
0

Would you say E160S shows 8OG:A repair function score at minimum -0.07?
1

Would you say L313C shows 8OG:A repair function score at minimum -0.07?
0

Would you say A520K shows 8OG:A repair function score at minimum -0.07?
1

Would you say R332M shows 8OG:A repair function score at minimum -0.07?
0

Would you say L95G shows 8OG:A repair function score at minimum -0.07?
1

Would you say G444I shows 8OG:A repair function score at minimum -0.07?
0

Would you say S294Y shows 8OG:A repair function score at minimum -0.07?
1

Would you say D512W shows 8OG:A repair function score at minimum -0.07?
1

Would you say L237W shows 8OG:A repair function score at minimum -0.07?
0
